# IC50 per entry
- Test system: epithelial breast carcinoma cell line (MDAMB-435)
- PROCEDURE DETAILS: Antiproliferative activity (growth inhibition, MTT), epithelial breast carcinoma cell line MDAMB-435
- Format: cell-based
- DETAILS: Homo sapiens, MDA-MB-435, 120 h, 5 days post drug addition, 0.1% DMSO, read-out: IC50 (growth inhibition of MDAMB-435 cells)
State the answer as a number, implicitly in nM.

Cn1ccnc1-c1ccc2c(C3=C(c4cn(C)c5ccccc45)C(=O)NC3=O)cn(C)c2c1; 60

API: the following record is the query input.
Value of IC50 reported for the compound Cn1cc(C2=C(c3cn(C)c4cc(C(F)(F)F)ccc34)C(=O)NC2=O)c2ccc(N3CCOCC3)cc21 [Example 14e] is 50
